- condition: buffer; pH 7.4; 200.0 µM
measured endpoint: solubility kinetic

Reported solubility kinetic of "CCCc1cc(NCCCO)n2c(nc3ccccc32)c1C#N" : 3.3 µg/mL

Reported solubility kinetic of "COc1cc(C(=O)CSc2nccn2C)cc(OC)c1OC" : > 48.4 µg/mL

Reported solubility kinetic of "O=C(Cc1ccccc1)NCC(=O)N1CCc2ccccc2C1" : > 46.3 µg/mL

Reported solubility kinetic of "O=C(NCCN1CCCCC1)Nc1ccc([N+](=O)[O-])cc1" : > 43.9 µg/mL

Reported solubility kinetic of "CCC(CC)N1CCN(C(=O)c2cc(OC)c(OC)c(OC)c2)CC1" : > 52.6 µg/mL

Reported solubility kinetic of "Cc1ccsc1C(=O)NCCc1c[nH]c2ccccc12" : > 42.7 µg/mL

* * *

- condition: buffer; pH 7.4; 200.0 µM
measured endpoint: solubility kinetic (µg/mL)
Respond numerically; units are µg/mL and should not be typed.

Reported solubility kinetic of "Cc1ccc(C(=O)NCCNC(=O)c2ccc(C)o2)o1" : 36.1

Reported solubility kinetic of Cn1c(=O)c(C(=O)NCC2CCCO2)c(O)c2ccccc21 (configuration not stated) : 15.2

Reported solubility kinetic of Cc1ccc2c(c1)C(=O)C(=O)N2CC1COc2ccccc2O1 (configuration not stated) : 19.5

* * *

- condition: buffer; pH 7.4; 200.0 µM
measured endpoint: log10 solubility kinetic (log10 of the value in µg/mL)
Parameter value (number): base-10 log of solubility kinetic in µg/mL.

Reported log10 solubility kinetic of "COc1ccc(N2CCN(C(=O)Cc3ccc(C)cc3)CC2)cc1" : 1.64

Reported log10 solubility kinetic of "CN(CC(=O)NCc1ccco1)CC(=O)Nc1ccc(F)c(F)c1F" : 1.66

Reported log10 solubility kinetic of "CN1CCN(c2ccc(CNS(=O)(=O)c3cccc(F)c3)cc2)CC1" : 0.83

Reported log10 solubility kinetic of "CCCOc1ccc(C(=O)Nc2ccc3c(c2)OCCO3)cc1" : 0.00

Reported log10 solubility kinetic of "Cc1ccc2[nH]c(=S)n(-c3cccnc3)c(=O)c2c1" : 0.45

Reported log10 solubility kinetic of "CCN(CC)C(=O)Cn1cc(/C=C(\C#N)C(=O)NC2CC2)c2ccccc21" : 1.63

Reported log10 solubility kinetic of "CC(=O)c1c(C)n(CC(=O)NCc2ccco2)c2ccccc12" : 1.27

Reported log10 solubility kinetic of "Cc1ccc(S(=O)(=O)N(C)c2ccc3ccccc3c2)cc1" : 0.20

Reported log10 solubility kinetic of "CCOc1ccc(C(=O)N2CCn3c2nc2ccccc23)cc1" : 0.81

Reported log10 solubility kinetic of "Cc1ccc(CNC(=O)Cc2noc3ccccc23)cc1" : 0.36

Reported log10 solubility kinetic of "NC(=O)c1cccc(CS(=O)(=O)c2ccc(Cl)cc2)c1" : 1.21

Reported log10 solubility kinetic of "S=C(Nc1ccc(Cl)cc1Cl)N1CCCC1" : 0.93

Reported log10 solubility kinetic of "Cc1ccccc1C(=O)OCc1cnc(Cl)s1" : 0.15

Reported log10 solubility kinetic of "O=C(CSc1ccc([N+](=O)[O-])cn1)Nc1nccs1" : 0.28

Reported log10 solubility kinetic of "COc1cccc(CN2CC=C(c3ccc(F)cc3)CC2)c1" : 1.01

Reported log10 solubility kinetic of O=C(NC1CCCCC1)NC1C2CC3CC(C2)CC1C3 (stereo not given) : 0.36

Reported log10 solubility kinetic of "Cc1ccc(CNC(=O)Nc2ccc(OC(F)(F)F)cc2)n1C" : 0.97

* * *

Answer each item with its documented solubility kinetic.
- condition: buffer; pH 7.4; 200.0 µM
Respond numerically; units are µg/mL and should not be typed.

Reported solubility kinetic of Cc1ccc2cc(NC(=O)CC(CC(=O)O)c3ccccc3)ccc2n1 (configuration not stated) : 47

Reported solubility kinetic of "O=C(Nc1ccccc1N1CCOCC1)c1ccc2c(c1)OCO2" : 4.7

Reported solubility kinetic of O=C(O)c1cc(O)ccc1NC(=O)C1CCCO1 (configuration not stated) : 30.1

Reported solubility kinetic of "O=C(CN1CCCCCC1)Nc1ccc([N+](=O)[O-])cc1Cl" : 1.1

Reported solubility kinetic of "Cc1cccc(C)c1NC(=S)N(CCN(C)C)Cc1cccs1" : 45.8

Reported solubility kinetic of "O=C(Oc1cccc(Cl)c1)N1CCOCC1" : 34.8

Reported solubility kinetic of "CCNc1nc(-c2ccc(OC(F)F)cc2)c(C)s1" : 20.9

Reported solubility kinetic of "S=C(NCCCc1ccccc1)NCc1ccccc1" : 23.4

* * *

- condition: buffer; pH 7.4; 200.0 µM
measured endpoint: solubility kinetic (µg/mL)
Respond numerically; units are µg/mL and should not be typed.

Reported solubility kinetic of "CSc1cccc(NS(=O)(=O)c2cn(C)cn2)c1" : 14.2

Reported solubility kinetic of S=C(NCc1ccccc1)NC1CCSc2ccccc21 (centres undefined) : 1.2

Reported solubility kinetic of "O=C(c1ccccc1)c1cccn1CC(=O)N1CCc2ccccc2C1" : 41.4

Reported solubility kinetic of "Cc1cccc(C)c1NC(=O)COC(=O)/C=C/c1ccc(S(=O)(=O)N2CCOCC2)cc1" : 2.2

Reported solubility kinetic of "CC(C)c1ccccc1NS(=O)(=O)c1cccs1" : 28.2

Reported solubility kinetic of "CCCCN(CC)C(=O)c1cc2c(=O)[nH]c3ccc(C)cc3c2s1" : 0.5

Reported solubility kinetic of "CCOc1ccc(C(=O)Nc2ccccc2OC(F)F)cc1" : 6.1

Reported solubility kinetic of O=C(CC1OC(=O)c2ccccc21)Nc1cc(Cl)ccc1N1CCOCC1 (centres undefined) : 5.8

Reported solubility kinetic of CC1CCCC(NC(=O)COc2ncnc3ccccc23)C1C (centres undefined) : 44.6

Reported solubility kinetic of "O=C(O)CNC(=S)N(Cc1ccccc1)Cc1ccccc1F" : 47.4

Reported solubility kinetic of "CCC(CC)C(=O)c1c[nH]c(C(=O)NCc2cccs2)c1" : 4.4

Reported solubility kinetic of "COc1ccc(/C=C/C(=O)Nc2cccnc2Cl)cc1" : 8.9

Reported solubility kinetic of COCc1ccc(C(=O)NC2CCSc3ccccc32)cc1 (centres undefined) : 16.8

Reported solubility kinetic of "O=C(COC(=O)c1ccccc1C(F)(F)F)NC(=O)NCc1ccco1" : 19.5

Reported solubility kinetic of "Cc1ccc(Nc2c(F)c(F)c(F)c(F)c2C(=O)O)c(C)c1" : 40.4

Reported solubility kinetic of "CCOC(=O)c1c(/N=C/c2ccc(C)cc2O)sc2c1CCN(C)C2" : 11.6

Reported solubility kinetic of "COCC(=O)Nc1ccc(S(=O)(=O)Nc2nccs2)cc1" : 47

Reported solubility kinetic of "CSc1ncccc1C(=O)Nc1ccc(OC(F)(F)F)cc1" : 3.8

Reported solubility kinetic of "COc1ccc(S(=O)(=O)N2CCOCC2)cc1NC(=O)COc1ccc(C)cc1" : 28.4

Reported solubility kinetic of "O=C(Cc1ccc(-c2ccccc2)cc1)Nc1ccccn1" : 12

* * *

Answer each item with its documented solubility kinetic.
- condition: buffer; pH 7.4; 200.0 µM
Respond numerically; units are µg/mL and should not be typed.

Reported solubility kinetic of "CCc1c(C)nc(N2CCN(c3ccccc3)CC2)[nH]c1=O" : 8.8

Reported solubility kinetic of "CC#CC(=O)N1CCC(CO)(CCc2ccccc2)CC1" : 41.8

Reported solubility kinetic of "COc1ccc(NC(=O)NC2CCCCCCC2)cc1OC" : 2.7

Reported solubility kinetic of "O=C(COC(=O)/C=C/c1ccc(Cl)cc1)Nc1cccc(S(=O)(=O)NC2=NCCCCC2)c1" : 8.7

Reported solubility kinetic of "CN(C)c1ccc(NC(=O)COC(=O)c2ccc3c(c2)OCO3)cc1" : 10.8

Reported solubility kinetic of "S=C1Nc2ccccc2Sc2ccccc21" : 1

Reported solubility kinetic of "Cc1occc1C(=O)Nc1c(Cl)cccc1Cl" : 37.1

* * *

- condition: buffer; pH 7.4; 200.0 µM
Answer each item with its documented solubility kinetic.

Reported solubility kinetic of "Cc1cc(NC(=O)CSc2nc3ccccc3n2CC(C)C)no1" : 7.3 µg/mL

Reported solubility kinetic of CC1Cc2ccccc2N1Cc1ccc([N+](=O)[O-])cc1 (stereo not given) : < 0.3 µg/mL

Reported solubility kinetic of "COc1ccc(NC(=O)c2coc(C)c2)cc1" : 31.9 µg/mL

Reported solubility kinetic of "COC(=O)c1c(NC(=O)CCCC(=O)O)sc2c1CCCCC2" : > 50.9 µg/mL

Reported solubility kinetic of CC(OC(=O)c1c(F)cccc1F)C(=O)NCCC1=CCCCC1 (stereo not given) : > 50.6 µg/mL

Reported solubility kinetic of "S=C1NCN(Cc2ccco2)CN1c1ccccc1" : > 41 µg/mL

Reported solubility kinetic of "N#Cc1ccc(OCC(=O)N2CCCC2=O)cc1" : > 36.6 µg/mL

Reported solubility kinetic of "CCOc1ccccc1NC(=O)CN1C(=O)COc2ccc(C)cc21" : 2.4 µg/mL

Reported solubility kinetic of "Cc1ccc(C)c(-c2csc(Nc3ncccn3)n2)c1" : 0.2 µg/mL

Reported solubility kinetic of "CC(=O)Nc1cccc(C(=O)OCCCOc2ccc(F)cc2)c1" : 2.6 µg/mL

Reported solubility kinetic of "O=C(CSc1ncc(-c2ccccc2)[nH]1)Nc1ccccc1F" : > 49.1 µg/mL

Reported solubility kinetic of CC1(C)CC(=O)C(C(O)c2ccc([N+](=O)[O-])cc2)C(C)(C)N1 (stereo not given) : 39.9 µg/mL

Reported solubility kinetic of "Cc1ccc2[nH]cc(CCNC(=O)c3cccs3)c2c1" : > 42.7 µg/mL

Reported solubility kinetic of "COc1cc2c(cc1OC)CN(c1ccc(C(F)(F)F)cn1)CC2" : 34.9 µg/mL

Reported solubility kinetic of "CC(=O)Nc1c(O)nc(C)[nH]c1=O" : > 27.5 µg/mL

Reported solubility kinetic of O=C1OC(NCc2cccnc2)(c2ccc(Cl)cc2)c2ccccc21 (stereo not given) : > 52.6 µg/mL

Reported solubility kinetic of "CC(C)(C)C(=O)OCc1nc(-c2ccc(O)c(O)c2)cs1" : 39.5 µg/mL

Reported solubility kinetic of "N#C/C(=C\c1ccccc1Br)C(=O)NC1CC1" : > 43.7 µg/mL

Reported solubility kinetic of "Cc1noc2ncnc(Oc3cc(Cl)ccc3Cl)c12" : < 0.2 µg/mL

Reported solubility kinetic of "CCOC(=O)c1cc(C#N)c(=S)[nH]c1C" : 33.1 µg/mL

Reported solubility kinetic of CC1CN(C(=O)COC(=O)/C=C/c2cccc([N+](=O)[O-])c2)CC(C)O1 (stereo not given) : 34.2 µg/mL

Reported solubility kinetic of "Cn1c(NNC(=O)c2c(F)cccc2F)cc(=O)n(C)c1=O" : > 46.5 µg/mL

Reported solubility kinetic of "O=Cc1cccn1-c1ncc(Br)cn1" : 30.6 µg/mL

Reported solubility kinetic of "Cc1c(O)ccc(C(=O)CN2CCN(Cc3ccccc3)CC2)c1O" : 38.1 µg/mL

Reported solubility kinetic of COc1ccc(CN2C(=O)CSC2c2ccncc2)cc1 (stereo not given) : > 45.1 µg/mL
